Conditions: in acetonitrile, 273.15 K
quantity-name: solubility (mole fraction)
Format: numeric value only, no unit, no commentary.

Request: // query solubility (mole fraction) value for entry Nc1cccc2ccccc12
Response: 0.527

====

Conditions: in acetone, 278.15 K
quantity-name: solubility (mole fraction)
Format: numeric value only, no unit, no commentary.

Request: // query solubility (mole fraction) value for entry Nc1cccc2ccccc12
Response: 0.59

====

Conditions: in n-butyl acetate, 298.15 K
quantity-name: solubility (mole fraction)
Format: numeric value only, no unit, no commentary.

Request: // query solubility (mole fraction) value for entry Nc1cccc2ccccc12
Response: 0.706

====

Conditions: in acetonitrile, 293.15 K
quantity-name: solubility (mole fraction)
Format: numeric value only, no unit, no commentary.

Request: // query solubility (mole fraction) value for entry Nc1cccc2ccccc12
Response: 0.708

====

Conditions: in n-butanol, 288.15 K
quantity-name: solubility (mole fraction)
Format: numeric value only, no unit, no commentary.

Request: // query solubility (mole fraction) value for entry Nc1cccc2ccccc12
Response: 0.247

Every entry's value here was drawn from BigSolDB 2.1.
